Biological target: EGFRTK (Homo sapiens)
Sequence (P00533 25-1210): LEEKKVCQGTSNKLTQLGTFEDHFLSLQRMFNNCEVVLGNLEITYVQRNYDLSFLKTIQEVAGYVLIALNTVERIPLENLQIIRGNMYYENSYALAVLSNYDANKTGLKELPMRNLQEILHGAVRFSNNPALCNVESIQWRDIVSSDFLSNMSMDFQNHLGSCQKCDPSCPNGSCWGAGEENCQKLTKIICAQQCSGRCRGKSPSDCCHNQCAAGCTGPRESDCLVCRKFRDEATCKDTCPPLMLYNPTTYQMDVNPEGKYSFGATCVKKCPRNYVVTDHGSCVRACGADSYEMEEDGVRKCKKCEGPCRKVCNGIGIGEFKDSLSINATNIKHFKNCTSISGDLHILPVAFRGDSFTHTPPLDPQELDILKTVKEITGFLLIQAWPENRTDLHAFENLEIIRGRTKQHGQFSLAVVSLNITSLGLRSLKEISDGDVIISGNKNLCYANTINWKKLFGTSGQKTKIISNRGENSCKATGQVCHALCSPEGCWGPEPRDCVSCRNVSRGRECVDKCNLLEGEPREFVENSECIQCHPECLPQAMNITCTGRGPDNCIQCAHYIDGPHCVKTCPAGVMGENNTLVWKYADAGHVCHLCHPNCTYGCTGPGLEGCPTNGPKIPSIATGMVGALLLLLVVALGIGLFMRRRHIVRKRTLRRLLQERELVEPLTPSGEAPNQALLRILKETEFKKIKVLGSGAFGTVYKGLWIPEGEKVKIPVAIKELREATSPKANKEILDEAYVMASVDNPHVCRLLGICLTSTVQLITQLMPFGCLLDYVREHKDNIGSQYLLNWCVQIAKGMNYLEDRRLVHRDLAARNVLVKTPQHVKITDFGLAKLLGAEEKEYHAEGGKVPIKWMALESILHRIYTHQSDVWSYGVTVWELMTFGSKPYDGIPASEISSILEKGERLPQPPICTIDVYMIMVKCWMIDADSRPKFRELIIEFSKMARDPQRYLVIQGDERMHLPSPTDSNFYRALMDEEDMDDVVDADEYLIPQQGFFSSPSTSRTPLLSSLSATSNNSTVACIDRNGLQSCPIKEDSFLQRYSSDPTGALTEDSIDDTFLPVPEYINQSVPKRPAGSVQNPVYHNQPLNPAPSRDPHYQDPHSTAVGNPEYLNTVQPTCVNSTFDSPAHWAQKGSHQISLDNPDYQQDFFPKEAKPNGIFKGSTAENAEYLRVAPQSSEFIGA
Assay: EGFRTK inhibition
Assay type: biochemical
Conditions: % inhibition at 10 micromolar compound
Text: Blanks for a particular enzyme indicate that inhibition was not found.
outcomeMeasure: EGFRTK @ 10 μm (%)

For orientation, consider the following solved cases.
COc1cccc([C@H](C)NC(=O)c2cc3cc(F)ccc3[nH]2)c1	12
COc1ccc(CNC(=O)c2cc3cc(F)ccc3[nH]2)cc1	16

1. O=C(NCc1ccc(F)cc1C(F)(F)F)c1[nH]c2ccc(F)cc2c1-c1ccccc1
2. O=C(NCc1cccc(F)c1)c1cc2cc(F)ccc2[nH]1
Looking at recorded values for EGFRTK @ 10 μm, does 1 or 2 come in lower? In your reply, give the label of the chosen option.
1

Cited source for all entries: patent US7772216B2
